Some variants, each annotated with its measured polymerase ribozyme fitness (log ratio).
B1: TPR t1 (parent)
chain: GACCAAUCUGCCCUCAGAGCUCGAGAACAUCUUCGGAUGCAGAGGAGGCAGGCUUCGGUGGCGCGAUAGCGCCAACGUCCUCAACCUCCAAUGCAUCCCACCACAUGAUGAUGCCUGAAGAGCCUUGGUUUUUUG

Variants of: B1
method.description: polymerase ribozyme fitness, log enrichment relative to wild type (log ratio); higher = more active; in vitro selection for triplet polymerase activity
# output: bare number, no unit

- sequence.entry: "GACCAAUGUGCACUCAGAGCUCGAGAACAUCUUCGGAUGCAGAGGAGGCAGGCUUCGGUGGCGCGAUAGCGCCAACGUCCUCAACCUCCAAUGCAUCCCACCACAUGAAGAUGCCUGACGGGCCUUGGUUUUUUG [C8G C12A U109A A119C A121G]"
  polymerase ribozyme fitness (log ratio): -5.47
- sequence.entry: "GACUAAUCUGCCCUCAGAGCUCGAGAACAUCUUCGGAUGCAGAGGAGGCAGGCUUCGGUGUCGCGAUAGCGCCAACGUCCUCAACCUCCAAUGCAUCCCACCACAUGAUGAUGCCUGAAGAGCCUUGGUUUUUUG [C4U G61U]"
  polymerase ribozyme fitness (log ratio): -0.685
- sequence.entry: "GACCAAUCUGCCCUCAGAGCUCGAGAACAUCUUCGGAUGCAGAGGAGGCAGGCUUCGGUGGCGCGAUAGCCCCAACGUCCUCAACCUCCAAUGCAUCCCACCACAUGAUGAUGCCUGAAGAGCUUUGGUUUUUUG [G71C C124U]"
  polymerase ribozyme fitness (log ratio): 0.16
- sequence.entry: "GACCAAUCUGCCCUCAGAGCUCGAGAACAUCUUCGGAUGCAGAGGAGGCAGGCUUCGGUGGCGCGAUAGCGCAAACGUCCUCAACCUCCAAUGCAUCCCAGCACAUGAUGAUGCCUGAUGAGCCUUGGUUUUUUG [C73A C101G A119U]"
  polymerase ribozyme fitness (log ratio): -1.93
- sequence.entry: "GACCAAUCUGCUCACAGAGCUCGAGAACAUCUUCGGAUGCAGAGGAGGCAGGCUUCGGUGGCGCGAUAGCGCCAACGUCCUCAACCUGCAAUGCAUCCCACCACAUGAUGAUGCCUGAAGAGCCUUGGUUUUUUG [C12U U14A C88G]"
  polymerase ribozyme fitness (log ratio): -1.12

Problem: Recorded polymerase ribozyme fitness (log ratio) of GACCAAUCUGCCCUCAGAGCUCGAGAACAUCUUCGGAUGCAGAGGAGGCAGGCUUCGGUGGCGCGAUAGCGCCAACGUCCUCAAUCUCCAAUGCAUCCCACCACAUGAUGAUGCCUGGAGAGCCUUGGUUUUUUG [C85U A118G] , please.
Result: -0.773

Problem: And what about the variant GACCAAUCUGCCCUCAGAGCUCGAGAACAUCUUCGGAUGGAGAGGAGGUAGGCUUCGGUGGCGCGAUAGCGCCAACGUCCUCAACCUCCAAUGCAUCCCACCACAUGAUGAUGCCUGAAGAGCCUUGGUUUUUUG [C40G C49U] ?
Result: -2.95

Problem: Entry to check: GACCAUUCUGCCCUCAGAGCUCUAGAACAUCUUCGGAUGCAGAGGAGGCAGGCUUCGGUGGCGCGAUAGCGCCAACGUCCUCAACCUCCAAUGCAUCCCACCACAUGAUGAUGCCUGAAGAGCCUUGGUUUUUUG [A6U G23U]
Result: -4.65

Problem: Another: GACCAAUCUGCCCUCGGAGCUCGAGAACAUCUUCGGAUGCAGAGGAGGCAGGCUUCGGUGGCGCGAUAGCGCCAACGUCCUCAACUUCCAAUGCAUCCCACCACAUGAUGAUGCCUGAAGAGCCUUGGUUUUUUG [A16G C86U]
Result: -1.54

Problem: Consider next the variant GACCAAUCUGCCCUCAGAGCUCGAGAACAUCUUCGGAUGCAGAGGAGGCAGGCUUCGGUGCCGCGAUAGCGCCAACGUCCUCAACCUCCAAUGCAUCCCACCAAAUGAUGAUGCCUGAAGAGCCUUGGUUUUUUG [G61C C104A] in the same way.
Result: -3.92

Problem: Next record, please: GACCAAUCUGCCCUCAGAGCUCGAGAACAUCUUCGGAUGCAUAGGAGGCAGGCUUCGGUGGCGCGAUAGCACCAACGUCCUCAACCUCCAAUGCAUCCCACCACAUGAUGAUGCCUGAAGAGCCUUGGUUUUUUG [G42U G71A]
Result: -2.43
